Target: Tubulin (Homo sapiens) (UniProt P68371+Q9H4B7+P0DPH7+P68366+Q13509+Q71U36+P04350+Q3ZCM7+P07437+P68363+Q9BQE3+Q6PEY2+Q13885+Q9BVA1+Q9BUF5)
Assay: Binding affinity to microtubules, activity expressed as ID50 of compound/ID50 of paclitaxel
Type: protein-complex assay
property: ID50 ratio

Provide measured ID50 ratio value, entry: COc1ccc([C@H](NC(=O)c2ccccc2)[C@@H](O)C(=O)O[C@H]2C[C@@]3(O)[C@@H](OC(=O)c4ccccc4)[C@@H]4[C@]5(OC(C)=O)CO[C@@H]5C[C@H](O)[C@@]4(C)C(=O)[C@H](OC(C)=O)C(=C2C)C3(C)C)cc1
0.5

a: CCC(=O)O[C@H]1C[C@@]2(O)[C@@H](OC(=O)c3ccccc3)[C@@H]3[C@]4(OC(C)=O)CO[C@@H]4C[C@H](O)[C@@]3(C)C(=O)[C@H](OC(C)=O)C(=C1C)C2(C)C
b: CC(=O)O[C@H]1C(=O)[C@@]2(C)[C@H]([C@H](OC(=O)c3ccccc3)[C@]3(O)C[C@H](OC(=O)[C@H](O)[C@@H](NC(=O)C(C)(C)C)c4ccccc4)C(C)=C1C3(C)C)[C@]1(OC(C)=O)CO[C@@H]1C[C@@H]2O
Between the entries labeled a and b , whose measured ID50 ratio is lower? Lab note: record the label of whichever item you select.
b
(b: 2.6, a: 52)

---

Target: Tubulin (Homo sapiens) (UniProt P68371+Q9H4B7+P0DPH7+P68366+Q13509+Q71U36+P04350+Q3ZCM7+P07437+P68363+Q9BQE3+Q6PEY2+Q13885+Q9BVA1+Q9BUF5)
Assay: Binding affinity to microtubules, activity expressed as ID50 of compound/ID50 of paclitaxel
Assay type: protein-complex assay
property: ID50 ratio

Provide measured ID50 ratio value, entry: C/C=C(\C)C(=O)N[C@@H](c1ccccc1)[C@@H](O)C(=O)O[C@H]1C[C@@]2(O)[C@@H](OC(=O)c3ccccc3)[C@@H]3[C@]4(OC(C)=O)CO[C@@H]4C[C@H](O)[C@@]3(C)C(=O)[C@H](OC(C)=O)C(=C1C)C2(C)C
1.5

Provide measured ID50 ratio value, entry: CC(=O)O[C@@]12CO[C@@H]1C[C@H](O)[C@@]1(C)C(=O)[C@H](O)C3=C(C)[C@@H](OC(=O)[C@@H](O)[C@H](NC(=O)c4ccccc4)c4ccccc4)C[C@@](O)([C@@H](OC(=O)c4ccccc4)[C@H]21)C3(C)C
4

A: CC(=O)O[C@H]1C(=O)[C@@]2(C)[C@H]([C@H](OC(=O)c3ccccc3)[C@]3(O)C[C@H](OC(=O)[C@H](O)[C@@H](NC(=O)CC(C)(C)C)c4ccccc4)C(C)=C1C3(C)C)[C@]1(OC(C)=O)CO[C@@H]1C[C@@H]2O
B: CC(=O)O[C@H]1C(=O)[C@@]2(C)[C@H]([C@H](OC(=O)c3ccccc3)[C@]3(O)C[C@H](OC(=O)[C@H](O)[C@@H](NC(=O)/C(C)=N/O)c4ccccc4)C(C)=C1C3(C)C)[C@]1(OC(C)=O)CO[C@@H]1C[C@@H]2O
Between these two entries, A and B , state which has the higher ID50 ratio. Lab note: record the label of whichever item you select.
B
(B: 3.5, A: 0.7)

---

Biological target: Tubulin (Homo sapiens) (UniProt P68371+Q9H4B7+P0DPH7+P68366+Q13509+Q71U36+P04350+Q3ZCM7+P07437+P68363+Q9BQE3+Q6PEY2+Q13885+Q9BVA1+Q9BUF5)
Assay: Binding affinity to microtubules, activity expressed as log 1/ID50 of compound/ID50 of paclitaxel
Type: protein-complex assay
property: Log 1/ratio

Provide measured Log 1/ratio value, entry: CC(=O)O[C@H]1C(=O)[C@@]2(C)[C@H]([C@H](OC(=O)c3ccccc3)[C@]3(O)C[C@H](OC(=O)[C@H](O)[C@@H](NC(=O)c4cccc(Cl)c4)c4ccccc4)C(C)=C1C3(C)C)[C@]1(OC(C)=O)CO[C@@H]1C[C@@H]2O
-0.301

Provide measured Log 1/ratio value, entry: CC(=O)O[C@@]12CO[C@@H]1C[C@H](O)[C@@]1(C)C(=O)[C@H](O)C3=C(C)[C@@H](OC(=O)[C@@H](NC(=O)c4ccccc4)[C@H](O)c4ccccc4)C[C@@](O)([C@@H](OC(=O)c4ccccc4)[C@H]21)C3(C)C
-2.23

A: CC(=O)O[C@H]1C(=O)[C@@]2(C)[C@H]([C@H](OC(=O)c3ccccc3)[C@]3(O)C[C@H](OC(=O)[C@H](O)[C@@H](NC(=O)CC(C)(C)C)c4ccccc4)C(C)=C1C3(C)C)[C@]1(OC(C)=O)CO[C@@H]1C[C@@H]2O
B: CC(=O)O[C@H]1C[C@]2(C)[C@@H](O)C[C@H]3OC[C@@]3(OC(C)=O)[C@H]2[C@H](OC(=O)c2ccccc2)[C@@]2(O)C[C@H](OC(=O)[C@H](O)[C@@H](NC(=O)c3ccccc3)c3ccccc3)C(C)C1C2(C)C (some centres undefined)
C: CC(=O)O[C@H]1C(=O)[C@]2(C)[C@@H](OC(=O)[C@H](N)CCC(=O)O)C[C@H]3OC[C@@]3(OC(C)=O)[C@H]2[C@H](OC(=O)c2ccccc2)[C@]2(O)C[C@H](OC(=O)[C@H](O)[C@@H](NC(=O)c3ccccc3)c3ccccc3)C(C)=C1C2(C)C
D: CC(=O)O[C@@]12CO[C@@H]1C[C@H](O)[C@@]1(C)C(=O)[C@H](O)C3=C(C)[C@@H](OC(=O)[C@@H](O)[C@H](NC(=O)OC(C)(C)C)c4ccccc4)C[C@@](O)([C@@H](OC(=O)c4ccccc4)[C@H]21)C3(C)C
Put the compounds in ascending order of Log 1/ratio. Form field (ranking): labels in requested order.
D, B, C, A
(D: -1.48, B: -0.477, C: 0, A: 0.155)

---

Target: Tubulin (Homo sapiens) (UniProt P68371+Q9H4B7+P0DPH7+P68366+Q13509+Q71U36+P04350+Q3ZCM7+P07437+P68363+Q9BQE3+Q6PEY2+Q13885+Q9BVA1+Q9BUF5)
Test: Binding affinity to microtubules, activity expressed as ID50 of compound/ID50 of paclitaxel
Assay type: protein-complex assay
property: ID50 ratio

Provide measured ID50 ratio value, entry: CC(=O)O[C@H]1C(=O)[C@@]2(C)[C@H]([C@H](OC(=O)c3ccccc3)[C@]3(O)C[C@H](OC(=O)[C@H](O)[C@@H](NC(=O)c4ccccc4)c4ccc5ccccc5c4)C(C)=C1C3(C)C)[C@]1(OC(C)=O)CO[C@@H]1C[C@@H]2O
7.1

Provide measured ID50 ratio value, entry: CC(=O)O[C@H]1C(=O)[C@@]2(C)[C@H]([C@H](OC(=O)c3ccccc3)[C@]3(O)C[C@H](OC(=O)[C@H](O)[C@@H](NC(=O)c4ccc([N+](=O)[O-])cc4)c4ccccc4)C(C)=C1C3(C)C)[C@]1(OC(C)=O)CO[C@@H]1C[C@@H]2O
2

Provide measured ID50 ratio value, entry: CC(=O)O[C@H]1C(=O)[C@@]2(C)[C@H]([C@H](OC(=O)c3ccccc3)[C@]3(O)C[C@H](OC(=O)[C@H](O)[C@@H](NC(=O)c4ccc(Cl)c(Cl)c4)c4ccccc4)C(C)=C1C3(C)C)[C@]1(OC(C)=O)CO[C@@H]1C[C@@H]2O
2.1

Provide measured ID50 ratio value, entry: CC(=O)O[C@H]1C(=O)[C@@]2(C)[C@H]([C@H](OC(=O)c3ccccc3)[C@]3(O)C[C@H](OC(=O)[C@H](O)[C@@H](NC(=O)c4ccoc4)c4ccccc4)C(C)=C1C3(C)C)[C@]1(OC(C)=O)CO[C@@H]1C[C@@H]2O
0.4

Provide measured ID50 ratio value, entry: COc1ccc(C(=O)N[C@@H](c2ccccc2)[C@@H](O)C(=O)O[C@H]2C[C@@]3(O)[C@@H](OC(=O)c4ccccc4)[C@@H]4[C@]5(OC(C)=O)CO[C@@H]5C[C@H](O)[C@@]4(C)C(=O)[C@H](OC(C)=O)C(=C2C)C3(C)C)cc1
0.6

I: CC(=O)O[C@H]1C(=O)[C@]2(C)[C@@H](OC(=O)c3ccc(N=[N+]=[N-])cc3)C[C@H]3OC[C@@]3(OC(C)=O)[C@H]2[C@H](OC(=O)c2ccccc2)[C@]2(O)C[C@H](OC(=O)[C@H](O)[C@@H](NC(=O)c3ccccc3)c3ccccc3)C(C)=C1C2(C)C
II: CC(=O)O[C@H]1C(=O)[C@@]2(C)[C@H]([C@H](OC(=O)c3ccccc3)[C@]3(O)C[C@H](OC(=O)[C@H](O)[C@@H](NC(=O)c4ccco4)c4ccccc4)C(C)=C1C3(C)C)[C@]1(OC(C)=O)CO[C@@H]1C[C@@H]2O
Between these two entries, I and II , state which has the higher ID50 ratio. Lab note: record the label of whichever item you select.
I

A: CC(=O)O[C@@]12CO[C@@H]1C[C@H](OC(=O)[C@H](N)Cc1ccccc1)[C@@]1(C)C(=O)[C@H](O)C3=C(C)[C@@H](OC(=O)[C@H](O)[C@@H](NC(=O)OC(C)(C)C)c4ccccc4)C[C@@](O)([C@@H](OC(=O)c4ccccc4)[C@H]21)C3(C)C
B: CC(=O)O[C@H]1C(=O)[C@@]2(C)[C@H]([C@H](OC(=O)c3ccccc3)[C@]3(O)C[C@H](OC(=O)[C@H](C)O)C(C)=C1C3(C)C)[C@]1(OC(C)=O)CO[C@@H]1C[C@@H]2O
Between these two entries, A and B , state which has the higher ID50 ratio. Lab note: record the label of whichever item you select.
B
(B: 6.4, A: 1)

P: CCCCOC(=O)N[C@@H](c1ccccc1)[C@@H](O)C(=O)O[C@H]1C[C@@]2(O)[C@@H](OC(=O)c3ccccc3)[C@@H]3[C@]4(OC(C)=O)CO[C@@H]4C[C@H](O)[C@@]3(C)C(=O)[C@H](OC(C)=O)C(=C1C)C2(C)C
Q: CC(=O)O[C@@]12CO[C@@H]1C[C@H](O)[C@@]1(C)C(=O)[C@H](O)C3=C(C)[C@@H](OC(=O)C[C@H](NC(=O)OC(C)(C)C)c4ccccc4)C[C@@](O)([C@@H](OC(=O)c4ccccc4)[C@H]21)C3(C)C
R: CC(=O)O[C@H]1C(=O)[C@@]2(C)[C@H]([C@H](OC(=O)c3ccccc3)[C@]3(O)C[C@H](OC(=O)[C@@H](C)O)C(C)=C1C3(C)C)[C@]1(OC(C)=O)CO[C@@H]1C[C@@H]2O
S: CC(=O)O[C@H]1C(=O)[C@@]2(C)[C@H]([C@H](OC(=O)c3ccccc3)[C@]3(O)C[C@H](OC(=O)[C@H](NC(=O)c4ccccc4)[C@@H](O)c4ccccc4)C(C)=C1C3(C)C)[C@]1(OC(C)=O)CO[C@@H]1C[C@@H]2O
Put the compounds in ascending order of ID50 ratio. Form field (ranking): labels in requested order.
P, Q, R, S
